# Test system: LoVo-Dox
# assay.comment: Inhibition of cells growth by colorimetric (SRB) assay, LoVo-Dox
# applied.conditions: read-out: LOVO-DOX LC50; SRB assay, 48 hours exposure
readout.kind: CC50

Given CSc1nccc(-c2c3c(O)ccnc3n3c(N)nccc23)n1 , state its recorded CC50.
≥ 30.8 µM

----------
Can you tell me LN-caP TGI for the items I'm about to list?
# Tested on: LNCaP
# assay.comment: Inhibition of cells growth by colorimetric (SRB) assay, LNCaP
# applied.conditions: SRB assay, 48 hours exposure

Given CSc1nccc(-c2c3c(O)ccnc3n3c(N)nccc23)n1.Cl , state its recorded LN-caP TGI.
2.88E−07

Given CS(=O)(=O)c1nccc(-c2c3cccnc3n3c(N)nccc23)n1 , state its recorded LN-caP TGI.
1.51E−05

Given CSc1nccc(-c2c3cccnc3n3c(NC(C)=O)nccc23)n1 , state its recorded LN-caP TGI.
4.77E−06

Given CSc1nccc(-c2c3cc4ccccc4nc3n3c(N)nccc23)n1 [Compound 18a] , state its recorded LN-caP TGI.
7.31E−06

Given Cl.Nc1nccc(-c2c3c(Cl)ccnc3n3c(N)nccc23)n1 , state its recorded LN-caP TGI.
8.03E−07

Given CSc1nccc(-c2c3cccnc3n3c(N(C(C)=O)C(C)=O)nccc23)n1 , state its recorded LN-caP TGI.
8.89E−06

Given CSc1nccc(-c2c3cccnc3n3c(N)nccc23)n1.Cl , state its recorded LN-caP TGI.
1.05E−06

Given CSc1nccc(-c2c3ccc(C)nc3n3c(N)nccc23)n1 , state its recorded LN-caP TGI.
3.94E−06

Given Nc1nccc(-c2c3cccnc3n3c(N)nccc23)n1 [Deoxyvariolin 4, deoxyvariolin B, reference compound] , state its recorded LN-caP TGI.
1.32E−07

Given Cl.Nc1nccc(-c2c3c(O)ccnc3n3c(N)nccc23)n1 , state its recorded LN-caP TGI.
7.24E−07

Given CSc1nccc(-c2c3c(O)ccnc3n3c(N)nccc23)n1 , state its recorded LN-caP TGI.
3.08E−05

Given CSc1nccc(-c2c3c(N)ccnc3n3c(N)nccc23)n1.Cl , state its recorded LN-caP TGI.
3.68E−07
